# Test system: NCI-H524 (Small Cell Lung Carcinoma)
# measurementDescription: combination Emax (second highest fraction inhibited in the dose matrix, 72 h); higher = more inhibition; extreme values may be limits of the assay
quantityKind: combination Emax
Please reply with the number alone, leaving off any unit.

COc1nnc2ccc(N3CCC(c4ccc(OCCN5CCN(C)C(=O)[C@H]5C)cc4)CC3)nn12 [AZD5153] + CCN(CCO)CCCOc1ccc2c(Nc3cc(CC(=O)Nc4cccc(F)c4)[nH]n3)ncnc2c1 [AZD2811] (first compound max 1 µM, 7x7, partner max 1 µM) ... 0.97
CC1(C)CCC(CN2CCN(c3ccc(C(=O)NS(=O)(=O)c4ccc(NCC5CCOCC5)c([N+](=O)[O-])c4)c(Oc4cnc5[nH]ccc5c4)c3)CC2)=C(c2ccc(Cl)cc2)C1 [Venetoclax] + COc1cc(Nc2ncc3c(n2)-c2ccc(Cl)cc2C(c2c(F)cccc2OC)=NC3)ccc1C(=O)O [Alisertib] (first compound max 1 µM, 7x7, partner max 10 µM) ... 0.991

The compound identified as Cc1cc2ncnn2cc1Nc1ncc2c(n1)n(C1CCOCC1)c(=O)n2C [AZD7648] + CCN(CCO)CCCOc1ccc2c(Nc3cc(CC(=O)Nc4cccc(F)c4)[nH]n3)ncnc2c1 [AZD2811] (first compound max 10 µM, 7x7, partner max 1 µM) registered its combination Emax at 0.985

----------
# Test system: LNZTA3WT4 (Low Grade Glioma)
# measurementDescription: combination Emax (second highest fraction inhibited in the dose matrix, 72 h); higher = more inhibition; extreme values may be limits of the assay
quantityKind: combination Emax
Please reply with the number alone, leaving off any unit.

Below are worked cases with known answers.
COc1cccc(OCCCN)c1-c1cc(Nc2cnc(C#N)cn2)n[nH]1 [Prexasertib] + O=C(c1cc(Cc2n[nH]c(=O)c3ccccc23)ccc1F)N1CCN(C(=O)C2CC2)CC1 [Olaparib] (first compound max 1 µM, 7x7, partner max 10 µM) ... 0.885
Cc1nc(-c2cn3c(n2)-c2ccc(-c4cnn(C(C)(C)C(N)=O)c4)cc2OCC3)n(C(C)C)n1 [Taselisib] + O=C(Nc1ccc2[nH]nc(-c3ccncc3)c2c1)[C@@H]1CCN(CC(=O)N2CCN(c3ccc(-c4ncccn4)cc3)CC2)C1 [SCH772984] (first compound max 10 µM, 7x7, partner max 5 µM) ... 0.66
C[C@@H](c1ccc2nccn2c1)n1nnc2ncc(-c3cnn(C)c3)nc21 [Savolitinib] + Cc1c2c(nn1C)CSCc1cc(n(C)n1)CSc1cc(c3ccccc3c1)OCCCc1c(C(=O)O)n(C)c3c-2c(Cl)ccc13 [AZD5991] (first compound max 1 µM, 7x7, partner max 1 µM) ... 0.222
CC1(C)CCC(CN2CCN(c3ccc(C(=O)NS(=O)(=O)c4ccc(NCC5CCOCC5)c([N+](=O)[O-])c4)c(Oc4cnc5[nH]ccc5c4)c3)CC2)=C(c2ccc(Cl)cc2)C1 [Venetoclax] + C=CCn1c(=O)c2cnc(Nc3ccc(N4CCN(C)CC4)cc3)nc2n1-c1cccc(C(C)(C)O)n1 [AZD1775] (first compound max 1 µM, partner max 1 µM) ... 0.917
N#Cc1cnc(Nc2cc(NC[C@H]3CNCCO3)c(C(F)(F)F)cn2)cn1 [SRA737] + CCc1c2c(nc3ccc(O)cc13)-c1cc3c(c(=O)n1C2)COC(=O)[C@]3(O)CC [SN-38] (first compound max 10 µM, 7x7, partner max 0.3 µM) ... 0.84
Cc1c2c(nn1C)CSCc1cc(n(C)n1)CSc1cc(c3ccccc3c1)OCCCc1c(C(=O)O)n(C)c3c-2c(Cl)ccc13 [AZD5991] + CC(=O)O[C@H]1C(=O)[C@@]2(C)[C@H]([C@H](OC(=O)c3ccccc3)[C@]3(O)C[C@H](OC(=O)[C@H](O)[C@@H](NC(=O)c4ccccc4)c4ccccc4)C(C)=C1C3(C)C)[C@]1(OC(C)=O)CO[C@@H]1C[C@@H]2O [Paclitaxel] (first compound max 1 µM, 7x7, partner max 3 µM) ... 0.899

Would you kindly look at the next entry?
The molecule identified as C=CCn1c(=O)c2cnc(Nc3ccc(N4CCN(C)CC4)cc3)nc2n1-c1cccc(C(C)(C)O)n1 [AZD1775] + CCc1c2c(nc3ccc(O)cc13)-c1cc3c(c(=O)n1C2)COC(=O)[C@]3(O)CC [SN-38] (first compound max 1 µM, partner max 0.3 µM) registered its combination Emax at 0.802

----------
# Tested on: LCLC-97TM1 (Non-Small Cell Lung Carcinoma)
# measurementDescription: Bliss excess, mean over the matrix (fraction); higher = more synergy
# Bliss excess annotations
Please reply with the number alone, leaving off any unit.

Cc1c2c(nn1C)CSCc1cc(n(C)n1)CSc1cc(c3ccccc3c1)OCCCc1c(C(=O)O)n(C)c3c-2c(Cl)ccc13 [AZD5991] + CN(C)CCCOc1ccc(-c2ccc3ncc4c(c3c2)n(C2CCOCC2)c(=O)n4C)cn1 [AZD0156] (first compound max 1 µM, 7x7, partner max 1 µM) ... -0.0018
NC1(C(=O)N[C@@H](CCO)c2ccc(Cl)cc2)CCN(c2ncnc3[nH]ccc23)CC1 [Capivasertib] + Cn1cnc2c(F)c(Nc3ccc(Br)cc3Cl)c(C(=O)NOCCO)cc21 [Selumetinib] (first compound max 10 µM, 7x7, partner max 10 µM) ... 0.0752
Cc1c2c(nn1C)CSCc1cc(n(C)n1)CSc1cc(c3ccccc3c1)OCCCc1c(C(=O)O)n(C)c3c-2c(Cl)ccc13 [AZD5991] + Cc1cc2ncnn2cc1Nc1ncc2c(n1)n(C1CCOCC1)c(=O)n2C [AZD7648] (first compound max 1 µM, 7x7, partner max 10 µM) ... -0.0015
CN(C)CCCOc1ccc(-c2ccc3ncc4c(c3c2)n(C2CCOCC2)c(=O)n4C)cn1 [AZD0156] + CCN(CCO)CCCOc1ccc2c(Nc3cc(CC(=O)Nc4cccc(F)c4)[nH]n3)ncnc2c1 [AZD2811] (first compound max 1 µM, 7x7, partner max 1 µM) ... 0.0765
CN(CCO)CC[C@H](CSc1ccccc1)Nc1ccc(S(=O)(=O)NC(=O)c2ccc(N3CCC([C@@H](O)c4ccccc4-c4ccc(Cl)cc4)CC3)cc2)cc1S(=O)(=O)C(F)(F)F [AZD4320] + Cc1cc2ncnn2cc1Nc1ncc2c(n1)n(C1CCOCC1)c(=O)n2C [AZD7648] (first compound max 1 µM, 7x7, partner max 10 µM) ... -0.0214

The molecule identified as NC1(C(=O)N[C@@H](CCO)c2ccc(Cl)cc2)CCN(c2ncnc3[nH]ccc23)CC1 [Capivasertib] + CC(=O)c1c(C)c2cnc(Nc3ccc(N4CCNCC4)cn3)nc2n(C2CCCC2)c1=O [Palbociclib] (first compound max 10 µM, 7x7, partner max 10 µM) registered its Bliss excess at 0.0152

The molecule identified as C[C@@H]1COCCN1c1cc(C2([S@](C)(=N)=O)CC2)nc(-c2ccnc3[nH]ccc23)n1 [AZD6738] + O=C(c1cc(Cc2n[nH]c(=O)c3ccccc23)ccc1F)N1CCN(C(=O)C2CC2)CC1 [Olaparib] (first compound max 10 µM, 7x7, partner max 10 µM) registered its Bliss excess at -0.0539

----------
# Test system: NCI-H1568 (Lung Adenocarcinoma)
# measurementDescription: Bliss excess, mean over the matrix (fraction); higher = more synergy
# Bliss excess annotations

Below are worked cases with known answers.
C[C@@H](c1ccc2nccn2c1)n1nnc2ncc(-c3cnn(C)c3)nc21 [Savolitinib] + Cc1c2c(nn1C)CSCc1cc(n(C)n1)CSc1cc(c3ccccc3c1)OCCCc1c(C(=O)O)n(C)c3c-2c(Cl)ccc13 [AZD5991] (first compound max 1 µM, 7x7, partner max 1 µM) ... -0.05
Cn1cnc2c(F)c(Nc3ccc(Br)cc3Cl)c(C(=O)NOCCO)cc21 [Selumetinib] + CC(C)n1c(=O)n(C)c2cnc3cc(F)c(-c4ccc(OCCCN5CCCCC5)nc4)cc3c21 [AZD1390] (first compound max 10 µM, 7x7, partner max 0.3 µM) ... -0.0508

Would you kindly look at the next entry?
The compound identified as CC1(C)CCC(CN2CCN(c3ccc(C(=O)NS(=O)(=O)c4ccc(NCC5CCOCC5)c([N+](=O)[O-])c4)c(Oc4cnc5[nH]ccc5c4)c3)CC2)=C(c2ccc(Cl)cc2)C1 [Venetoclax] + CCN(CCO)CCCOc1ccc2c(Nc3cc(CC(=O)Nc4cccc(F)c4)[nH]n3)ncnc2c1 [AZD2811] (first compound max 1 µM, 7x7, partner max 1 µM) registered its Bliss excess at -0.0339

----------
# Bliss excess annotations
# Test system: BPH-1 (Non-Cancerous)
# measurementDescription: Bliss excess, mean over the matrix (fraction); higher = more synergy
Please reply with the number alone, leaving off any unit.

CN(CCO)CC[C@H](CSc1ccccc1)Nc1ccc(S(=O)(=O)NC(=O)c2ccc(N3CCC([C@@H](O)c4ccccc4-c4ccc(Cl)cc4)CC3)cc2)cc1S(=O)(=O)C(F)(F)F [AZD4320] + C[C@@H](Nc1cc(F)cc(F)c1)c1cc(C(=O)N(C)C)cc2c(=O)cc(N3CCOCC3)oc12 [AZD8186] (first compound max 1 µM, 7x7, partner max 3 µM) ... -0.0541

Would you kindly look at the next entry?
Record NC1(C(=O)N[C@@H](CCO)c2ccc(Cl)cc2)CCN(c2ncnc3[nH]ccc23)CC1 [Capivasertib] + COc1nnc2ccc(N3CCC(c4ccc(OCCN5CCN(C)C(=O)[C@H]5C)cc4)CC3)nn12 [AZD5153] (first compound max 10 µM, 7x7, partner max 1 µM) / BPH-1 (Non-Cancerous), Bliss excess recorded as -0.0542

Where do these numbers come from? They come from the supplement of paper PMC11061612.
